Assign A2 Bind. to each entry below.
target: A2.1 HLA molecules (Homo sapiens, UniProt P04439, D140Y/D185E/D98H/E176V/E277Q/G131W/G231S/I119V/I121R/I166T/I218V/L300P/L318F/N151K/N90K/P208A/P217A/Q86G/Q94H/R138H/R169H/T345S); assay type: binding; design: scale not given here
Answers are plain numbers.

{"biopolymerSequence": "YLYGVGSAV", "measuredValue": 0.1600}

Below is a list of sequences. For each, state its recorded A2 Bind..
1. VMIAMEGGHA
2. SLLNATDIAV
3. ALFLGFLGAA
4. MLDLQPETT
5. AMSRNLFRV

1. 0.0360
2. 0.1050
3. 0.4950
4. 0.0130
5. 0.1500

* * *

target: A*0202 (Homo sapiens, UniProt P04439, D140Y/D185E/D98H/E176V/E277Q/G131W/G231S/I119L/I121R/I166T/I218V/L180W/L300P/L318F/N151K/N90K/P208A/P217A/Q67R/Q86G/Q94H/R138H/R169H/T345S); experiment: biochemical; format: binding
No end group written: not given here.
Exercise: for every item that follows, state its recorded IC50.
Numbers only, in µM.

Below, each entry is followed by its recorded IC50 result.
{"biopolymerSequence": "SLQELFIPNI [Peptide 9013.0182]", "measuredValue": 0.015}
{"biopolymerSequence": "NLNLSCHAV [Peptide 9013.0054]", "measuredValue": 0.015}

Return reported IC50 values for all items listed beneath this line.
1. MTANPPIPV [Peptide 1539.01]
2. FIQGAVISFV [Peptide 1578.12]

1. 0.0072
2. 0.012

* * *

biological target: A*3002 (Homo sapiens, UniProt P04439, D101N/D140H/D185E/E176R/F33S/G80R/H175R/K168Q/Q94H/R138E/R41S/V100E); assay: biochemical; format: binding
Sequence (P04439 whole entry, looked up, the tested form may be a part, stated change not applied): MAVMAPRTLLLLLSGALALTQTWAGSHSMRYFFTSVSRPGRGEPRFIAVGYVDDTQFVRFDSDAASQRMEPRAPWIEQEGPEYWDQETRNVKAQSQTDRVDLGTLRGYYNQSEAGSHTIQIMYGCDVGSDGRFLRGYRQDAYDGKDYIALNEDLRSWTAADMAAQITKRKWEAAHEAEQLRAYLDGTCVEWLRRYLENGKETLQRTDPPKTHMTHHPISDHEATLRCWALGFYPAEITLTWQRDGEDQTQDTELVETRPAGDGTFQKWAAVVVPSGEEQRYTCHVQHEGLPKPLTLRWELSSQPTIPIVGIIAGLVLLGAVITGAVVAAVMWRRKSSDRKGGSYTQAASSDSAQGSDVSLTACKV
No end group written: not given here.
endpointLabel: pIC50
One number for each entry, as −log10 of the molar value.

Please state pIC50 for every sequence in the list that follows.
1. TSDYYIVTY [Peptide 1549.48]
2. VFADLRIVY [Peptide 1549.09]
3. VTDCPYNY [Peptide 9012.0106]
4. YSDVRKYRY [Peptide 1549.49]

5.66
7.68
5.79
6.56

* * *

target: A2.1 HLA molecules (Homo sapiens, UniProt P04439, D140Y/D185E/D98H/E176V/E277Q/G131W/G231S/I119V/I121R/I166T/I218V/L300P/L318F/N151K/N90K/P208A/P217A/Q86G/Q94H/R138H/R169H/T345S); assay type: binding; design: scale not given here
Label yes (1) when A2 Bind. is strictly below 0.03; at or above that, label no (0).

Here's what some known entries look like.
{"biopolymerSequence": "MMWFVVLTV", "label": "no (0)"}
{"biopolymerSequence": "SLYSILSPFL", "label": "no (0)"}

Strictly below 0.03: is that where A2 Bind. of "SLLTFMIAA" sits? no (0)

Entry to check: "SLHCKPEEA" yes (1)

Now the same for "ALASCMGLI" yes (1)

Now the same for "FLLAQFTSA" no (0)

Entry "LLQYWSQEL" please yes (1)

Also "LLGRRGWEV" , if possible. yes (1)

Next sequence: "NLWVTVYYGV" yes (1)

What do you get for "FMWTYLVTL" ? no (0)

* * *

target: HLA-A11 (A*1101) (Homo sapiens, UniProt P04439, A114D/D185E/E176A/F33Y/L180Q/S129P/T187R); experiment: biochemical; format: binding
No end group written: not given here.
endpointLabel: pIC50
Numbers only, as −log10 of the molar value.

{"biopolymerSequence": "ATLESITKK [Peptide 78.0300]", "targetOrSystem": "HLA-A11 (A*1101) (Homo sapiens, UniProt P04439, A114D/D185E/E176A/F33Y/L180Q/S129P/T187R)", "pIC50": 7.74}
{"biopolymerSequence": "FADLTVVYR [Peptide 78.0318]", "targetOrSystem": "HLA-A11 (A*1101) (Homo sapiens, UniProt P04439, A114D/D185E/E176A/F33Y/L180Q/S129P/T187R)", "pIC50": 5.04}
{"biopolymerSequence": "QVVPPINISK [Peptide 1589.23]", "targetOrSystem": "HLA-A11 (A*1101) (Homo sapiens, UniProt P04439, A114D/D185E/E176A/F33Y/L180Q/S129P/T187R)", "pIC50": 7.96}
{"biopolymerSequence": "TLTYISTSQR [Peptide 88.0211]", "targetOrSystem": "HLA-A11 (A*1101) (Homo sapiens, UniProt P04439, A114D/D185E/E176A/F33Y/L180Q/S129P/T187R)", "pIC50": 5.08}
{"biopolymerSequence": "YLTAPTGCLK [Peptide 1589.15]", "targetOrSystem": "HLA-A11 (A*1101) (Homo sapiens, UniProt P04439, A114D/D185E/E176A/F33Y/L180Q/S129P/T187R)", "pIC50": 6.24}
{"biopolymerSequence": "AIVVWTIAY [Peptide 9017.0115]", "targetOrSystem": "HLA-A11 (A*1101) (Homo sapiens, UniProt P04439, A114D/D185E/E176A/F33Y/L180Q/S129P/T187R)", "pIC50": 8.04}

Hi, could you look up pIC50 for each item in my list?
1. WFYVQAIVDK [Peptide 88.0140]
2. HSRIGILRQR [Peptide 9017.0242]

4.89
5.16

Quick one: give me pIC50 for each item below, same order please.
1. EFTAFLDAFK [Peptide 88.0179]
2. LLLIRFRCSK [Peptide 88.0164]
3. ESKKEVESK [Peptide 9017.0083]
4. KSFFSRTWCK [Peptide 88.0170]
5. WTYFDTYMR [Peptide 88.0346]

1: 6.01; 2: 5.16; 3: 5.09; 4: 7.92; 5: 6.53

* * *

biological target: HLA-A1 (A*0101) (Homo sapiens, UniProt P04439, A114D/A174V/A182V/D101N/D185E/E176A/E190D/L180R/Q94H/R68K/S129P/T187R/V100A/V91M/W191G); assay: biochemical; assay type: binding
No end group written: not given here.
I'd appreciate it if you could supply IC50 values for the items below.

{"biopolymerSequence": "SFEPIPIHY [Peptide 9015.0001]", "IC50": "> 20 µM"}
{"biopolymerSequence": "GYFPDWQNY [Peptide 1605.15]", "IC50": "> 20 µM"}
{"biopolymerSequence": "RTKNPEIVIY [Peptide 9015.0164]", "IC50": "> 20 µM"}

Dear colleague, could you send me IC50 for each of the items below? Thanks.
1. VSIEWRKRRY [Peptide 9015.0183]
2. ETWETWWMDY [Peptide 9015.0168]
3. GTDCTTIHYNY [Peptide 9012.0200]
4. EVDYVGLYY [Peptide 1580.33]

["> 20 µM", "0.091 µM", "0.029 µM", "0.0036 µM"]

Quick one: give me IC50 for each item below, same order please.
1. VFADLRIVY [Peptide 1549.09]
2. VSIEWRLRRY [Peptide 9015.0181]

1. > 20 µM
2. 4.63 µM

* * *

molecular target: DR4w4 (DRB1*0401) (Homo sapiens, UniProt P01903+P01911, A100K/A169T/F76Y/I96L/K127E/L162R/M171V/N62H/P40V/Q125Y/R42H/S133A/S149N/S66Y/V115G/V209L/W38E); assay: biochemical; format: binding
No end group written: not given here.
endpointLabel: pIC50
One number for each entry, as −log10 of the molar value.

{"biopolymerSequence": "TPEWIQRLTIIQHGI [Peptide 89.0030]", "measuredValue": 6.72}
{"biopolymerSequence": "PPLLITTNINPMLDA [Peptide 89.0139]", "measuredValue": 6.21}
{"biopolymerSequence": "VSFLSALKLFLKGVP [Peptide 89.0053]", "measuredValue": 5.80}

From here, focus on the item given below.
Using the record for NTTPIIHLKGDKNSL [Peptide 1601.37] , report its pIC50. 4.92

* * *

molecular target: DR1 (DRB1*0101) (Homo sapiens, UniProt P01903+P01911, A100R/D57E/F55L/F60I/F76Y/I96L/L162R/M171V/P40L/Q125E/R42F/V115G/Y59C); assay: biochemical; type: binding
No end group written: not given here.
Record form. Attribute: pIC50. Fill in for each entry.
Give bare numbers, as −log10 of the molar value.

{"biopolymerSequence": "DMKLRLPAIPETHLD [Peptide 9014.0135]", "pIC50": 6.12}
{"biopolymerSequence": "ETELVEPLVPSGAMP [Peptide 9014.0156]", "pIC50": 7.07}
{"biopolymerSequence": "IIHLKGDANILKCLR [Peptide 90.0197]", "pIC50": 7.16}

Please report pIC50 for every entry that follows.
1. ETELVEPLSPSGAMP [Peptide 9014.0155]
2. FKYFKEDAAKYSKTQ [Peptide 90.0206]
3. KIFGSLAFLPESHDGDPA [9014,0255]
4. GTDMKLRLHASPETH [Peptide 9014.0098]
5. WKAVRHENVLYYKAR [Peptide 90.0230]
6. QNFIQNDTGFYTLHV [Peptide 9014.0071]

6.93
7.20
6.09
6.08
6.79
6.17
